target of assay: binding sites on mast cells (Homo sapiens)
Construct: endogenous in cells; host or cells: skin mast cells of living human volunteers (intradermal injection sites on back or forearm)
Sequence (P12319 26-257): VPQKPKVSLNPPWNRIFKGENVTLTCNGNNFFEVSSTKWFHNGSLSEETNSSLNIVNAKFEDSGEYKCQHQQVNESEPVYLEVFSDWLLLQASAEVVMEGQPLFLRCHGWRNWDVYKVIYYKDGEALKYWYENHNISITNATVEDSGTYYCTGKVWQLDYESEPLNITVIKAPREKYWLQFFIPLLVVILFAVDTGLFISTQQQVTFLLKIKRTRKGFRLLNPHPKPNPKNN
Sequence (Q01362 whole entry partner): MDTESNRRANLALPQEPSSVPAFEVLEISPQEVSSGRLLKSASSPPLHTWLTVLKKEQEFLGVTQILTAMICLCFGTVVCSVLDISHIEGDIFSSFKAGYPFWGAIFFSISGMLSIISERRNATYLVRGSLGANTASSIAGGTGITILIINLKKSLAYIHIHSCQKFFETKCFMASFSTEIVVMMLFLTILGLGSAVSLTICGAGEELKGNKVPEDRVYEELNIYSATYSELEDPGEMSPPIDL
Sequence (P30273 19-86 partner): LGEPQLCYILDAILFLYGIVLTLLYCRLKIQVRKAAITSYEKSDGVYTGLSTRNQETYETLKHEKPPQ
procedure details: Prausnitz-Kustner (P-K) reaction blocking activity assay in human volunteers
Format: in vivo
experimental conditions: six individuals; peptide approx. 6 μg/ml, 0.1 ml intradermally per site; 0.05 ml diluted P-K serum containing 0.2 ng IgE; guinea pig antigen prick-puncture; versus control wheal
Peptide text beside a SMILES is read from it.

molecule	reading unit	average % inhibition (P-K wheal)
N=C(N)NCCC[C@H](NC(=O)[C@@H]1CCCN1C(=O)[C@@H](N)CC(=O)O)C(=O)O [Asp-Pro-Arg] (H-Asp-Pro-Arg-OH)	%	15
C[C@H](N)C(=O)N[C@@H](CC(=O)O)C(=O)N[C@@H](CO)C(=O)N[C@@H](CC(=O)O)C(=O)N1CCC[C@H]1C(=O)N[C@@H](CCCNC(=N)N)C(=O)O [Ala-Asp-Ser-Asp-Pro-Arg] (H-ADSDPR-OH)	%	46
C[C@H](NC(=O)[C@H](CCC(=O)O)NC(=O)[C@@H](NC(=O)[C@@H](N)CC(=O)O)[C@@H](C)O)C(=O)N[C@@H](CCCNC(=N)N)C(=O)O [Asp-Thr-Glu-Ala-Arg, reference compound] (H-DTEAR-OH)	%	58
N=C(N)NCCC[C@H](NC(=O)[C@@H]1CCCN1C(=O)[C@H](CC(=O)O)NC(=O)[C@@H](N)CO)C(=O)O [Ser-Asp-Pro-Arg] (H-SDPR-OH)	%	18
N=C(N)NCCC[C@H](NC(=O)[C@@H]1CCCN1C(=O)[C@H](CC(=O)O)NC(=O)[C@H](CO)NC(=O)[C@@H](N)CC(=O)O)C(=O)O [Asp-Ser-Asp-Pro-Arg] (H-DSDPR-OH)	%	72

====

Items are presented alongside their recorded inhibition, individual low.
target of assay: binding sites on mast cells (Homo sapiens)
Construct: endogenous in cells; host or cells: skin mast cells of living human volunteers (intradermal injection sites on back or forearm)
procedure details: Prausnitz-Kustner (P-K) reaction blocking activity assay in human volunteers
Format: in vivo
experimental conditions: lowest individual of six; same conditions as the average
Peptide text beside a SMILES is read from it.
outcome measure: inhibition, individual low (%)

molecule	target of assay	outcome measure	measured result
C[C@H](N)C(=O)N[C@@H](CC(=O)O)C(=O)N[C@@H](CO)C(=O)N[C@@H](CC(=O)O)C(=O)N1CCC[C@H]1C(=O)N[C@@H](CCCNC(=N)N)C(=O)O [Ala-Asp-Ser-Asp-Pro-Arg] (H-ADSDPR-OH)	binding sites on mast cells (Homo sapiens)	inhibition, individual low	10
N=C(N)NCCC[C@H](NC(=O)[C@@H]1CCCN1C(=O)[C@H](CC(=O)O)NC(=O)[C@@H](N)CO)C(=O)O [Ser-Asp-Pro-Arg] (H-SDPR-OH)	binding sites on mast cells (Homo sapiens)	inhibition, individual low	0
C[C@H](NC(=O)[C@H](CCC(=O)O)NC(=O)[C@@H](NC(=O)[C@@H](N)CC(=O)O)[C@@H](C)O)C(=O)N[C@@H](CCCNC(=N)N)C(=O)O [Asp-Thr-Glu-Ala-Arg, reference compound] (H-DTEAR-OH)	binding sites on mast cells (Homo sapiens)	inhibition, individual low	30
N=C(N)NCCC[C@H](NC(=O)[C@@H]1CCCN1C(=O)[C@H](CC(=O)O)NC(=O)[C@H](CO)NC(=O)[C@@H](N)CC(=O)O)C(=O)O [Asp-Ser-Asp-Pro-Arg] (H-DSDPR-OH)	binding sites on mast cells (Homo sapiens)	inhibition, individual low	60
N=C(N)NCCC[C@H](NC(=O)[C@@H]1CCCN1C(=O)[C@@H](N)CC(=O)O)C(=O)O [Asp-Pro-Arg] (H-Asp-Pro-Arg-OH)	binding sites on mast cells (Homo sapiens)	inhibition, individual low	0
